- Test system: HS 578T breast
- ASSAY SUMMARY: NCI tumour cell line growth inhibition, 48 h

COMPOUND	GI50
CNCCCNc1nc2ccccc2c2c(=O)c3cc(Cl)ccc3sc12	1720 nM
CCN1C(=O)N(c2ccccc2)C2NN=c3s/c(=C4\C(=O)N(C(C)C)c5ccccc54)c(=O)n3C21 (stereo not given)	1060 nM
Cc1cc(C)nc(SC2=C(Nc3cccc(Cl)c3C)C(=O)N(Cc3ccccc3)C2=O)n1	> 160000 nM
CCCSC1=NC2C(N(CC)C(=O)N2CC)N1/N=C/C=C/c1ccccc1[N+](=O)[O-] (stereo not given)	2390 nM
COc1ccc(Cn2cc3c(c2-c2cc(OC)c(OC)c(OC)c2)CCc2cnoc2-3)cc1[N+](=O)[O-]	1130 nM

---

- Test system: CAKI-1 renal
- ASSAY SUMMARY: NCI tumour cell line growth inhibition, 48 h
Measured TGI by item

MOLECULE	TGI
CN(CCCNC(=O)c1nn(-c2ccc(Cl)cc2Cl)c2c1ccc1ccccc12)CCCNC(=O)c1nn(-c2ccc(Cl)cc2Cl)c2c1ccc1ccccc12	3.05 µM
O=C1/C(=C/c2ccccc2)CN(C(=O)OCc2ccccc2)C/C1=C\c1ccccc1	> 31.6 µM
Cc1cc(OCC(=O)N/N=C/C(Br)=C/c2ccccc2)nc(SCC(=O)N/N=C/C(Br)=C/c2ccccc2)n1	> 100 µM
C=C1C(=O)O[C@H]2[C@H]1CC(=O)/C(C)=C/CC[C@@]1(C)O[C@@H]21	1.28 µM
O=C(CCN1CCOCC1)Nc1ccc2sc3ccccc3c(=O)c2n1	63.8 µM
CCc1c(Cc2cc(C)cc(C)c2)n2c(nc1=O)SCC2CBr (stereo not given)	> 50 µM
COC(=O)[C@@H]1C[C@H]([Se]c2ccccc2)CN1C(=O)OCc1ccccc1	> 100 µM
COc1ccc2c(c1)[n+](=O)c(C(=O)/C=C/c1cc(OC)c(OC)c(OC)c1)c(C)n2[O-]	> 100 µM
CCOC(=O)C1=C(C)N(NC(N)=O)C2(O)CCCC(=O)C12C (stereo not given)	> 100 µM
Cc1ccc(O)c(C(=O)CCCC(=O)c2cc(C)ccc2O)c1	> 100 µM
O=C(NC(Nc1ccc(F)c(Cl)c1)(C(F)(F)F)C(F)(F)F)OCc1ccccc1	> 100 µM
Cc1nc(Nc2ccc([N+](=O)[O-])cc2)sc1C(/C=C/c1ccc(N(C)C)cc1)=N/NC(=O)c1ccccc1	> 100 µM
O=C(O)c1oc(C(=O)O)c(C(=O)O)c1C(=O)O	> 100 µM
NCCN1CC2CCC(CC2)C1	> 10 µM
C[C@]12[C@@H]3CC[C@H]1[C@@H](OC(=O)Nc1cc([N+](=O)[O-])cc([N+](=O)[O-])c1)C(=O)N2CC3	> 100 µM
C=C(Cl)C(=C)CCC(Cl)C(C)C (stereo not given)	> 100 µM
Cc1ccsc1/C=N/Nc1nncc2ccccc12	> 100 µM
CNC1C(O)C(OC2C(N)CC(N)C(OC3OC(C(C)O)C(O)C(O)C3N)C2O)OCC1(C)O (stereo not given)	> 100 µM
COC(=O)c1ccccc1/C=C1\Cc2cc(C)c(C)cc2C1=O	> 100 µM
COc1ccc(Cn2cc3c(c2-c2cc(OC)c(OC)c(OC)c2)CCc2cnoc2-3)cc1[N+](=O)[O-]	> 60.4 µM

---

- System: RPMI-8226 leukemia
- ASSAY SUMMARY: NCI tumour cell line growth inhibition, 48 h
READOUT NAME: log10 TGI (log10 of the value in µM)

COMPOUND	log10 TGI
COc1ccc(-c2ccc(/C=N/n3c(C)nn(CN4CCN(C)CC4)c3=S)o2)c([N+](=O)[O-])c1	1.81
NC(=O)NC(=O)c1cccc(NC(=O)CBr)c1	-0.51
C=CC[C@@]1(C)CCCCCCCCC[C@@](C)(CC=C)C1=O	1.82
O=C1C2c3[nH]c4ccccc4c3[C@@H]3CCCCC3C2C(=O)N1c1ccccc1 (some centres not stated)	1.68
S=c1sc2nc(Cl)nc(Cl)c2s1	0.99
O=C1CC(=O)N(CCc2ccccc2)S(=O)(=O)N1CCc1ccccc1	1.72
CN(CCCNC(=O)c1nn(-c2ccc(Cl)cc2Cl)c2c1ccc1ccccc12)CCCNC(=O)c1nn(-c2ccc(Cl)cc2Cl)c2c1ccc1ccccc12	0.64
O=C(Oc1ccccc1Cl)c1ccccc1Nc1ccnc(C(F)(F)F)c1	-0.41
O=C1CCc2c(sc3[nH]c(=S)n(Cc4ccccc4)c(=O)c23)C1	0.99
COc1cnc2c(c1)C(=O)c1c-2n(CCCN2CCCC2)c(=O)c2cc(F)ccc12	-0.19
C/C=C/C(=O)N1C(=O)OC[C@@H]1c1ccccc1	1.70
C#Cc1cccc(Nc2nc3ccc([N+](=O)[O-])cc3nc2Nc2cccc(C#C)c2)c1	0.00
C/C(Cc1ccc(Cl)cc1)=C(/c1ccc(Cl)cc1)c1ccc(OCCN(C)C)cc1	0.58
CC(C)C1OC(/C=C/c2ccccc2)OCC1(C)C (configuration not stated)	1.67

---

- Test system: RPMI-8226 leukemia
- ASSAY SUMMARY: NCI tumour cell line growth inhibition, 48 h; in the data active = GI50 below about 0.43 µM; inactive = the rest
Outcomes: Yes for active, No for inactive

MOLECULE	LABEL CLASS
COc1ccc(-c2ccc(/C=N/n3c(C)nn(CN4CCN(C)CC4)c3=S)o2)c([N+](=O)[O-])c1	No
COc1ccc(C(=O)COc2cccc(/C=C3\CSc4ccc(C)cc4C3=O)c2)cc1	No
Cc1ccc(S(=O)(=O)Cc2nc(-c3ccc(C(=O)NCc4cccnc4)cc3)oc2C)cc1	Yes
CCCCC#CC#Cc1cccc(=O)o1	No
C#CCOc1cccc(Nc2ncnc3ccc(NC(=O)CCl)cc23)c1	No
CC1=C[S+](c2ccccc2)c2cccc3cc4ccccc4c1c23 (stereo unspecified)	Yes
CCC[CH2][Sn]([CH2]CCC)([O]C(=O)C1CCC(=O)N1)[O]C(=O)C1CCC(=O)N1 (stereo unspecified)	Yes
C/C(Cc1ccc(Cl)cc1)=C(/c1ccc(Cl)cc1)c1ccc(OCCN(C)C)cc1	No
O=C1C(Cl)=C(Nc2cccc(O)c2)C(=O)N1c1ccccc1Cl	No
C=C(C)[C@@H]1CC[C@]2(COC3CCCCO3)CC[C@]3(C)[C@H](CC[C@@H]4[C@@]5(C)C=C(C=O)C(=O)C(C)(C)[C@@H]5CC[C@]43C)[C@@H]12 (stereo partly specified)	No
CCN1C(=O)N(c2ccccc2)C2NN=c3s/c(=C4\C(=O)N(C(C)C)c5ccccc54)c(=O)n3C21 (stereo unspecified)	No
O=C([O-])c1ccc(C(=O)[O-])cc1.O=C([O-])c1ccc(C(=O)[O-])cc1.[Mo+2].[Mo+2]	No
COc1cnc2c(c1)C(=O)c1c-2n(CCCN2CCCC2)c(=O)c2cc(F)ccc12	Yes
C#Cc1cccc(Nc2nc3ccc([N+](=O)[O-])cc3nc2Nc2cccc(C#C)c2)c1	Yes
C/C(=C\c1ccc(Cl)c(Cl)c1)[N+](=O)[O-]	No
CCCCn1sc(=O)n(Cc2ccc(CNC(=O)OCc3ccc4c(Br)cc(Br)c(O)c4n3)cc2)c1=O	No

---

- System: SK-OV-3 ovarian
- ASSAY SUMMARY: NCI tumour cell line growth inhibition, 48 h
Measured TGI by item
READOUT NAME: TGI

MOLECULE	ASSAY SYSTEM	READOUT NAME	REPORTED MEASUREMENT
CN(CCCNC(=O)c1nn(-c2ccc(Cl)cc2Cl)c2c1ccc1ccccc12)CCCNC(=O)c1nn(-c2ccc(Cl)cc2Cl)c2c1ccc1ccccc12	SK-OV-3 ovarian	TGI	3.49 µM
COc1ccc2c(c1)[n+](=O)c(C(=O)/C=C/c1cc(OC)c(OC)c(OC)c1)c(C)n2[O-]	SK-OV-3 ovarian	TGI	51.7 µM
NNc1[nH]c(=S)[nH]c1C(N)=O	SK-OV-3 ovarian	TGI	> 100 µM
COc1cc2c(cc1OC)C(=O)C(C1=C(SC(=N)N)C(=O)c3cc(OC)c(OC)cc31)C2 (stereo unspecified)	SK-OV-3 ovarian	TGI	> 100 µM
O=C(O)C12CCCC(CCC1)C2	SK-OV-3 ovarian	TGI	> 100 µM
Cc1nc(Nc2ccc([N+](=O)[O-])cc2)sc1C(/C=C/c1ccc(N(C)C)cc1)=N/NC(=O)c1ccccc1	SK-OV-3 ovarian	TGI	> 100 µM
c1ccc(COCC2OC3c4ccccc4COC3C2OCc2ccccc2)cc1 (stereo unspecified)	SK-OV-3 ovarian	TGI	> 100 µM
COC(=O)C(Cc1nc2ccc(Cl)cc2[nH]c1=O)/C(=N/NC(N)=O)C(=O)Nc1ccc(Cl)cc1 (stereo unspecified)	SK-OV-3 ovarian	TGI	> 100 µM
O=C(NO)C(=O)Nc1ccc(Cl)cc1[N+](=O)[O-]	SK-OV-3 ovarian	TGI	> 100 µM
CCCCCCCN1C(=O)C(O)(c2ccc(C3(O)C(=O)N(CCCCCCC)c4ccccc43)s2)c2ccccc21 (stereo unspecified)	SK-OV-3 ovarian	TGI	2.2 µM
O=C(O)Cn1c(=O)[nH]c(=O)c2c1ncn2Cc1ccccc1	SK-OV-3 ovarian	TGI	> 100 µM
